- System: CP237
- procedure text: qHTS profiling for inhibitors of Plasmodium falciparum proliferation (AID 504749); also: nearly all actives have a fitted effect of over 60% in size
- study conditions: P. falciparum in erythrocytes, SYBR Green DNA, 72 h; series mostly up to 28.7 µM
Records with an inconclusive call do not appear. The source made the active and inactive calls. Calls follow the shape of the dose curve; as a rule, active = well fitted inhibition curve with a large enough effect; inconclusive = small, poorly fitted or top-dose-only effect; inactive = flat fitted curve, though single readings scatter.
Classes to choose from: y for active, n for inactive

INSERT INTO measurements (compound, group) VALUES
  ('CN(C)CCc1c[nH]c2ccc(CS(=O)(=O)N3CCCC3)cc12', 'n'),
  ('C[C@@H](NCCCc1cccc(C(F)(F)F)c1)c1cccc2ccccc12', 'y'),
  ('COc1ccc(-c2ccc3cc(C(=O)O)ccc3c2)cc1C12CC3CC(CC(C3)C1)C2', 'n'),
  ('CC(C)NCC(O)c1ccc(NS(C)(=O)=O)cc1 (stereo not given)', 'n');

Problem: Outcome logged for `CN(C)c1ccc(C(=C2C=CC(=[N+](C)C)C=C2)c2ccc(N(C)C)cc2)cc1` in this assay:
Solution: y

----------
- Test system: CRL-7250
- procedure text: Cytotoxic Profiling of Annotated Libraries Using Quantitative High-Throughput Screening (AID 1296008); also: % is scaled to controls: 0 for no effect and ±100 for the full control effect; nearly all actives have a fitted effect of over 60% in size
- study conditions: Five cell lines viability, CellTiter-Glo ATP luminescence, 48-72 h; stronger effect = lower value
Inconclusive results are not listed.
attribute measured: max response (%)
Please respond with the number in % and leave the unit unwritten.

INSERT INTO results (compound, scale_unit, value_observed) VALUES
  ('Cc1ccc(S(=O)(=O)N[C@@H](Cc2ccccc2)C(=O)CCl)cc1', '%', -1.25),
  ('O=S(=O)(O)CCS', '%', 3.2),
  ('O=C(O)CSCC(=O)NC1CCSC1=O (stereo unspecified)', '%', -2.44),
  ('C[C@@H]1C[C@H]2[C@@H]3CCC4=CC(=O)C=C[C@]4(C)[C@@]3(Cl)[C@@H](O)C[C@]2(C)[C@@]1(OC(=O)c1ccco1)C(=O)CCl', '%', -41.7),
  ('Cn1nnc2c(C(N)=O)ncn2c1=O', '%', 3.05);

Problem: Endpoint output: max response of COc1c(N2CCNC(C)C2)c(F)cc2c(=O)c(C(=O)O)cn(C3CC3)c12 (stereo unspecified) . Value?
Solution: -3.69

----------
- procedure text: qHTS of pediatric cancer cell lines to identify multiple opportunities for drug repurposing: Confirmatory screen for Rh18 cells (AID 1347125);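 also: cells exposed to compound for 48 h; nearly all actives have a fitted effect of over 55% in size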
- study conditions: Rh18 rhabdomyosarcoma cells, viability; series mostly up to 45.9 µM
Inconclusive results are not listed. The source made the active and inactive calls. The call rests on the fitted dose curve; in most records, active means well fitted cell-killing curve with a large enough effect; inconclusive means small, poorly fitted or top-dose-only effect, or effect the other way; inactive means flat fitted curve, though single readings scatter.
One label from this list, please: active, inactive

Reference set (7 entries):
INSERT INTO measurements (compound, group) VALUES
  ('CC(C(=O)O)c1ccc2c(c1)CC(=O)c1ccccc1S2 (stereo not drawn)', 'inactive'),
  ('CCOC(=O)c1ccc(C#Cc2ccc3c(c2)C(C)(C)CCS3)nc1', 'inactive'),
  ('C[C@@H]1C[C@H]2[C@@H]3CCC4=CC(=O)C=C[C@]4(C)[C@@]3(Cl)[C@@H](O)C[C@]2(C)[C@@]1(OC(=O)c1ccco1)C(=O)CCl', 'active'),
  ('CC(C)C[C@H](NC(=O)[C@H](CCc1ccccc1)NC(=O)CN1CCOCC1)C(=O)N[C@@H](Cc1ccccc1)C(=O)N[C@@H](CC(C)C)C(=O)[C@@]1(C)CO1', 'active'),
  ('COC(=O)Nc1nc2ccc(C(=O)c3ccccc3)cc2[nH]1', 'inactive'),
  ('Nc1nc(=S)c2[nH]cnc2[nH]1', 'active'),
  ('CC(C)NCC(O)c1ccc(NS(C)(=O)=O)cc1 (stereo not drawn)', 'inactive');

Kindly consider the entry below.
Problem: Write down the call the test reported for this compound. Item: `CN(C)c1ccc(C(=C2C=CC(=[N+](C)C)C=C2)c2ccc(N(C)C)cc2)cc1`
Solution: active

----------
- procedure text: qHTS profiling of the MIPE4 collection as inhibitors of Plasmodium falciparum (DD2) proliferation (AID 743345)
- study conditions: P. falciparum Dd2 in erythrocytes, SYBR Green DNA, 72 h; at 28.5 µM (top of the series) unless noted
attribute measured: parasite growth remaining, % of DMSO control (lower = more inhibition) (%)
Supply the numeric figure in %, leaving out any unit text.

Worked cases, parasite growth remaining, % of DMSO control (lower = more inhibition) given:
INSERT INTO measurements (input_smiles, value_observed) VALUES
  ('COc1cccc(N(C)C(=S)Oc2ccc3c(c2)CCCC3)n1', 82.7),
  ('NC(N)=NC(N)=NCCc1ccccc1', 38.8);

Problem: Bench note: what parasite growth remaining, % of DMSO control (lower = more inhibition) did `CCc1c2c(nc3ccc(OC(=O)N4CCC(N5CCCCC5)CC4)cc13)-c1cc3c(c(=O)n1C2)COC(=O)[C@]3(O)CC` show?
Solution: 59.3

Problem: State the recorded parasite growth remaining, % of DMSO control (lower = more inhibition) for this entry: `COc1ccc2cc3[n+](cc2c1OC)CCc1cc2c(cc1-3)OCO2`
Solution: 6.26

Problem: Dear colleague, I am looking for the recorded parasite growth remaining, % of DMSO control (lower = more inhibition) of the following compound: `N=C(N)c1ccc(OCCCCCOc2ccc(C(=N)N)cc2)cc1`
Solution: 6.09

Problem: Which parasite growth remaining, % of DMSO control (lower = more inhibition) is reported for this compound? `CCCN[C@H]1CCc2nc(N)sc2C1`
Solution: 92.8

----------
- procedure text: qHTS of pediatric cancer cell lines to identify multiple opportunities for drug repurposing: Primary screen for Saos-2 cells (AID 1347097); also: nearly all actives have a fitted effect of over 40% in size
- study conditions: Saos-2 viability, CellTiter-Glo ATP luminescence, 48 h; series mostly up to 46 µM
Records with an inconclusive call do not appear. Calls of active or inactive are those of the source. Calls come from the whole dose curve; as a rule, active = well fitted cell-killing curve with a large enough effect; inconclusive = small, poorly fitted or top-dose-only effect; inactive = no such curve, though single readings can be large or run the other way.
Respond using exactly one of the listed classes: active, inactive

Examples from the recorded data:
INSERT INTO measurements (compound, group) VALUES
  ('CN(C)CCc1c[nH]c2ccc(C[C@H]3COC(=O)N3)cc12', 'inactive'),
  ('Cc1noc(NS(=O)(=O)c2ccc(N)cc2)c1C', 'inactive'),
  ('COc1cc(NCc2ccc3nc(N)nc(N)c3c2C)cc(OC)c1OC', 'active');

Problem: Given `CNS(=O)(=O)Cc1ccc2[nH]cc(CCN(C)C)c2c1` , state the outcome it received in this test.
Solution: inactive

Problem: Just curious, what result did CNC1CCCN(c2c(F)cc3c(=O)c(C(=O)O)cn(C4CC4)c3c2OC)C1 (centres undefined) get here?
Solution: inactive

Problem: How did this test come out for `CCN(C)C(=O)Oc1cccc([C@H](C)N(C)C)c1` ?
Solution: inactive

Problem: Entry `CNC(=O)c1cc(Oc2ccc(NC(=O)Nc3ccc(Cl)c(C(F)(F)F)c3)cc2)ccn1` : call = ?
Solution: active

Problem: Tell me the assay call for `NC(N)=NC(N)=NCCc1ccccc1` please.
Solution: inactive

----------
- procedure text: qHTS of pediatric cancer cell lines to identify multiple opportunities for drug repurposing: Confirmatory screen for NB-EBc1 cells (AID 1347115);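 also: cells exposed to compound for 48 h before the viability read; nearly all actives have a fitted effect of over 45% in size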
- study conditions: NB-EBc1 neuroblastoma cells, viability (cytotoxicity); series mostly up to 45.9 µM
Inconclusive results are not listed. Activity calls are given as the source filed them. Calls follow the shape of the dose curve; as a rule, active = well fitted cell-killing curve with a large enough effect; inconclusive = small, poorly fitted or top-dose-only effect, or effect the other way; inactive = no such curve, though single readings can be large or run the other way.
Field 'call' accepts 1.0 (active), 0.0 (inactive)

INSERT INTO measurements (compound, group) VALUES
  ('Cc1cccc(N(C)C(=S)Oc2ccc3ccccc3c2)c1', 1.0);

Problem: Could you check what this test reported for `CCOC(=O)c1ccc(C#Cc2ccc3c(c2)C(C)(C)CCS3)nc1` ?
Solution: 0.0

Problem: What classification did `COc1ccc(C(=O)CC(=O)c2ccc(C(C)(C)C)cc2)cc1` end up with in this test?
Solution: 0.0

Problem: Given `O=NN(CCCl)C(=O)NC1CCCCC1` , state the outcome it received in this test.
Solution: 0.0

Problem: Which result was noted for this compound in the test: `CC(C)(C)C(=O)OCOP(=O)(COCCn1cnc2c(N)ncnc21)OCOC(=O)C(C)(C)C`
Solution: 1.0

----------
- Test system: P94_40
- procedure text: qHTS profiling for inhibitors of Plasmodium falciparum proliferation (AID 504749); also: nearly all actives have a fitted effect of over 60% in size
- study conditions: P. falciparum in erythrocytes, SYBR Green DNA, 72 h; series mostly up to 28.7 µM
Inconclusive results are not listed. The source made the active and inactive calls. The call rests on the fitted dose curve; in most records, active means well fitted inhibition curve with a large enough effect; inconclusive means small, poorly fitted or top-dose-only effect; inactive means flat fitted curve, though single readings scatter.
The categories you may choose from are active, inactive

INSERT INTO assay_data (compound, group) VALUES
  ('CCc1c2c(nc3ccc(OC(=O)N4CCC(N5CCCCC5)CC4)cc13)-c1cc3c(c(=O)n1C2)COC(=O)[C@]3(O)CC', 'inactive'),
  ('CC1=NN(c2ccccc2)C(=O)C1', 'inactive'),
  ('Cc1cccc(N(C)C(=S)Oc2ccc3ccccc3c2)c1', 'inactive'),
  ('Cc1noc(NS(=O)(=O)c2ccc(N)cc2)c1C', 'inactive'),
  ('CN1CCN(c2c(F)cc3c(=O)c(C(=O)O)cn(CCF)c3c2F)CC1', 'inactive');

Problem: Test call for this compound, please: C1CCC(C(CC2CCCCN2)C2CCCCC2)CC1 (stereo unspecified)
Solution: active
